Each recorded value in this set is attributed to PubChem BioAssay.

assay: MM1S myeloma cell viability, profiling panel, resazurin fluorescence, basal, 24 h, PK04 Diversity Set (AID 1174); conditions: higher = more signal, called active from +8 up or from −8 down;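 note: MM1S multiple myeloma cell line; test concentration not given here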
Here, each record is paired with measured z-score data.

{"columns": ["COMPOUND", "z-score"],
 "data": [
  ["O=c1cccc(CCc2ccccc2)o1", -0.0074],
  ["Cc1ccc(S[C@]2(C(=O)NCC(C)C)CC(=O)N(Cc3ccccc3)[C@@H]2c2ccc(CO)cc2I)cc1", -1.73],
  ["CCC[C@@H]1C=C(C(=O)O)[C@H](c2ccc(C)cc2)N1S(=O)(=O)c1ccc(C)cc1", -0.522],
  ["COc1ccc(C(O)C2C=CC3C(=O)N(C)C(=O)C3N2Nc2ccccc2)cc1OCc1ccccc1 (centres undefined)", -0.157]
]}

---

test: binders of probe aFST on microarray, primary screen, stem cell growth factor project, biochemical, small-molecule microarray, fluorescence 635/667 (AID 1086); details: higher = more signal;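 note: score merges 667 nm fluorescence with signal-to-noise of each printed compound spot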
We use 0.6 as the dividing line for composite z-score: on or above the line is yes (1), below is no (0).

{"columns": ["COMPOUND", "CLASSIFICATION"],
 "data": [
  ["CC(C)=CCCC(C)=CC(O)C1C=CC2C(=O)N(c3ccccc3)C(=O)C2N1Nc1ccccc1 (stereo not drawn)", "yes (1)"],
  ["C=CC[C@@H](OC(=O)Nc1ccc(OC)cc1)c1ccc(O)c2ccccc12", "no (0)"],
  ["COc1ccc([Si](C)(C)[C@H]2[C@H](CCn3cc(CCO)nn3)O[C@@]3(C(=O)N(Cc4ccc(N5CCOC5=O)cc4)c4ccccc43)[C@@H]2C)cc1", "no (0)"],
  ["CO[C@H]1O[C@H](CO)[C@@H](OC(=O)Nc2ccc3c(c2)OCO3)[C@H](OC(=O)Nc2ccccc2)[C@H]1OC(=O)Nc1ccccc1", "yes (1)"],
  ["COc1ccc(CCNC(=O)[C@@H]2c3ccccc3C(=O)N(Cc3ccc(OC(F)(F)F)cc3)[C@H]2c2ccc(CO)cc2)cc1", "no (0)"],
  ["CC1CC/C=C\\[C@H]2OC34C=CCN(Cc5ccccc5)C(=O)[C@H]3N(CCCCCO)C(=O)[C@@H]4C2C(=O)O1 (stereo partly drawn)", "no (0)"],
  ["C[N+](C)(C)CCCCCCNC(=O)[C@H]1C[C@H]2C(=O)N3CCC[C@H]3C(=O)N2[C@H]1c1ccc(O)cc1", "no (0)"],
  ["CC1=C2[C@@H](CCc3ccccc3)OB(O)C[C@@H]2n2c(=O)n(-c3ccccc3)c(=O)n2C1", "no (0)"],
  ["COCCOC(=O)N1C(=O)[C@@]2(c3cc(C#CCC(C(=O)OC)C(=O)OC)ccc31)[C@H](C(=O)N1CCN(c3ncccn3)CC1)[C@H]1C(=O)O[C@H](c3ccccc3)[C@H](c3ccccc3)N1[C@@H]2c1ccc(OCCO)cc1", "no (0)"],
  ["COC(=O)[C@@]1(Cc2ccc(F)cc2)[C@H]2c3cc(C(=O)N4CCCC4)n(Cc4cccc5ccccc45)c3C[C@H]2CN1C(=O)c1ccccc1", "no (0)"],
  ["COC(=O)c1ccc(C(O)C2C=CC3C(=O)N(c4ccccc4)C(=O)C3N2Nc2ccc(C#N)cc2)o1 (stereo not drawn)", "no (0)"],
  ["C=CCC(OC(C)=O)[C@@H]1[C@@H](N(Cc2cccc3ccccc23)C(=O)c2cccc3ccccc23)c2cc(OCCCO)ccc2N1C(=O)c1ccc2ccccc2n1 (stereo partly drawn)", "no (0)"],
  ["COC(=O)C1=CC(CCCO)=CC(C2CC2)N(Cc2sc3ccccc3c2Cl)C=C1C(=O)OC (stereo not drawn)", "yes (1)"]
]}
